The reader will find reported scaled log2 fold change values listed item by item below.
B1: library; numbered along this chain (parent)
chain: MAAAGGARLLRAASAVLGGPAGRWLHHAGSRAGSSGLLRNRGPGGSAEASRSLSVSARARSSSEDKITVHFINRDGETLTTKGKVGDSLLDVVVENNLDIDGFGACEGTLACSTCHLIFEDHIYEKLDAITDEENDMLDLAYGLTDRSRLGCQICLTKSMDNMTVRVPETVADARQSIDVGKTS

Variants of: B1
Experiment: scaled log2 fold change in cell abundance, elesclomol vs control (0 = silent mean, 1 = nonsense mean) (scaled log2 ratio); higher = higher viability under elesclomol (loss of FDX1 cuproptosis function);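 further: variant abundance is its share of total variant reads in each endpoint sample, from next-generation sequencing of the integrated ORF PCR-amplified out of genomic DNA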
Conditions: with ABC1 FDX1 KO; elesclomol 5 nM; glucose 10 mM; 14 days
Observed property: scaled log2 fold change

* C115K | 1.02
* I67E | 0.963
* R58L | -0.211
* G83V | 0.0583
* S88L | 0.0552
* P43Q | 0.274
* A59H | -0.614
* G86D | 0.248
* R147T | -0.344
* D99P | 0.167
* H116F | 0.69
* N97M | 0.195
* D161L | 0.312
* D139H | -0.062
* S184D | -0.159
* R149I | 0.876
* T145Q | 0.226
* A111Q | -0.0306
* T114I | 1.02
* S50N | 0.219
* V165E | 1.06
* R41I | -0.144
* D146C | 0.0801
* L25W | 0.28
* E134H | 0.345
* R147F | 0.104
* T109R | -0.153
* E120C | 0.227
* I67C | 0.2
* N73W | -0.0509
* R58P | 0.228
* D99T | 0.182
* C112I | 0.989
* Q153A | 0.0247
* A21S | 0.463
* N96D | 0.104
* T157F | 0.0938
* I67H | 0.608
* I123Y | -0.0557
* F103T | 1.16
* H70F | 0.152
* G19F | 0.0719
* I118D | 0.0488
* G18N | 0.408
* G86N | 0.233
* E169K | -0.0829
* S177G | -0.315
* G104V | 0.949
* G83F | 0.576
* D99Y | -0.0205
* Y142M | -0.877
* T164D | 0.108
* R41V | -0.196
* K84G | -0.452
* D161H | -0.161
* R149W | 1.07
* L79R | -0.538
* N162H | -0.203
* Y142C | 0.285
* S159C | 0.095
* H122I | 0.215
* A57F | -0.681
* W24L | 0.45
* I154W | 0.968
* G42R | 0.1
* A3F | -0.338
* L140V | -0.00688
* T68L | 0.248
* A105P | 0.895
* I100K | 0.223
* S159K | 0.382
* D136R | 0.898
* D139A | 0.113
* N73S | 0.237
* D121I | 0.217
* G5F | 0.228
* L117F | 0.176
* V85D | 0.12
* V171F | 0.0552
* S88E | 0.289
* G151H | 1.27
* T157Y | 0.175
* R58C | 0.0658
* V85N | -0.0121
* H70D | 0.33

Hello, the source for this data is the supplement of paper PMC12855868, in case you need it.
